- assay: Half life in CD1 mouse liver microsomes at 1 uM preincubated for 5 mins followed by NADPH addition and measured by LC/MS/MS analysis
- Format: ADME, microsome
- condition-details: mouse, microsomes, 1 µM
Attribute: t1/2
property-measured: t1/2 (min)

chem-smiles: O=C(N[C@@H](Cn1ccnc1)c1c(F)cc(-c2ccc(F)cc2)cc1F)c1ccc(-c2nnc(-c3ccccc3)o2)cc1
unit-label: min
observed: 23
--
chem-smiles: O=C(N[C@@H](Cn1ccnc1)c1ccc(-c2ccc(F)cc2)cc1Cl)c1ccc(-c2nnc(-c3ccccc3)o2)cc1
unit-label: min
observed: 91
--
chem-smiles: O=C(N[C@@H](Cn1ccnc1)c1ccc(-c2ccccc2)cc1Cl)c1ccc(-c2nnc(-c3ccccc3)o2)cc1
unit-label: min
observed: 160
--
chem-smiles: [2H]c1c([2H])c([2H])c(-c2ccc([C@H](Cn3ccnc3)NC(=O)c3ccc(-c4nnc(-c5ccccc5)o4)cc3)c(Cl)c2)c([2H])c1[2H]
unit-label: min
observed: 25
--
chem-smiles: O=C(N[C@@H](Cn1ccnc1)c1ccc(-c2ccc(F)cc2)cc1Cl)c1ccc(-c2nnc(-c3ccccn3)o2)cc1
unit-label: min
observed: 52
--
chem-smiles: O=C(N[C@@H](Cn1ccnc1)c1ccc(-c2ccc(F)cc2)cc1F)c1ccc(-c2nnc(-c3ccccc3)o2)cc1
unit-label: min
observed: 38
--
chem-smiles: CS(=O)(=O)c1ccc(-c2ccc([C@H](Cn3ccnc3)NC(=O)c3ccc(-c4nnc(-c5ccccc5)o4)cc3)c(Cl)c2)cc1
unit-label: min
observed: 43

###

- assay: Intrinsic clearance in Sprague-Dawley rat liver microsomes at 1 uM preincubated for 5 mins followed by NADPH addition and measured after 45 mins by LC/MS/MS analysis
- Format: ADME, microsome
- condition-details: read-out: CLH
Sorting guide: entries reporting CLint scaled at 1 µM beneath 60 mL/min/kg go in the TRUE pile, the rest go in the FALSE pile.

chem-smiles: O=C(N[C@@H](Cn1ccnc1)c1ccc(-c2ccccc2)cc1Cl)c1ccc(-c2nnc(-c3ccccc3)o2)cc1
group: FALSE

chem-smiles: CS(=O)(=O)c1ccc(-c2ccc([C@H](Cn3ccnc3)NC(=O)c3ccc(-c4nnc(-c5ccccc5)o4)cc3)c(Cl)c2)cc1
group: TRUE

chem-smiles: [2H]c1c([2H])c([2H])c(-c2ccc([C@H](Cn3ccnc3)NC(=O)c3ccc(-c4nnc(-c5ccccc5)o4)cc3)c(Cl)c2)c([2H])c1[2H]
group: FALSE

chem-smiles: O=C(N[C@@H](Cn1ccnc1)c1ccc(-c2ccc(F)cc2)cc1Cl)c1ccc(-c2nnc(-c3ccncc3)o2)cc1
group: TRUE

chem-smiles: O=C(N[C@@H](Cn1ccnc1)c1ccc(-c2ccc(F)cc2)cc1Cl)c1ccc(-c2nnc(-c3ccccc3)o2)cc1
group: TRUE

chem-smiles: O=C(N[C@@H](Cn1ccnc1)c1ccc(-c2ccc(F)cc2)cc1F)c1ccc(-c2nnc(-c3ccccc3)o2)cc1
group: TRUE

chem-smiles: O=C(N[C@@H](Cn1ccnc1)c1ccc(-c2ccc(F)cc2)cc1Cl)c1ccc(-c2nnc(-c3ccccn3)o2)cc1
group: TRUE

chem-smiles: O=C(N[C@@H](Cn1ccnc1)c1c(F)cc(-c2ccc(F)cc2)cc1F)c1ccc(-c2nnc(-c3ccccc3)o2)cc1
group: TRUE

###

- assay: Plasma concentration in BALB/c mouse assessed as time until the compound becomes undetectable at 25 mg/kg, po via gavage […]
- Format: ADME, organism-based
- condition-details: in vivo
List of Time values.
property-measured: Time (h)

chem-smiles: O=C(N[C@@H](Cn1ccnc1)c1ccc(Cl)cc1Cl)c1ccc(-c2nnc(-c3ccc(OCC(F)(F)F)cc3F)o2)cc1
property-measured: Time
reported-relation: =
observed: 6
--
chem-smiles: O=C(N[C@@H](Cn1ccnc1)c1ccc(-c2ccc(F)cc2)cc1Cl)c1ccc(-c2nnc(-c3ccccn3)o2)cc1
property-measured: Time
reported-relation: =
observed: 10
--
chem-smiles: [2H]c1c([2H])c([2H])c(-c2ccc([C@H](Cn3ccnc3)NC(=O)c3ccc(-c4nnc(-c5ccccc5)o4)cc3)c(Cl)c2)c([2H])c1[2H]
property-measured: Time
reported-relation: <
observed: 16
--
chem-smiles: O=C(N[C@@H](Cn1ccnc1)c1ccc(-c2ccccc2)cc1Cl)c1ccc(-c2nnc(-c3ccccc3)o2)cc1
property-measured: Time
reported-relation: <
observed: 10
--
chem-smiles: O=C(N[C@@H](Cn1ccnc1)c1ccc(Cl)cc1Cl)c1ccc(-c2nnc(-c3ccc(F)c(F)c3)o2)cc1
property-measured: Time
reported-relation: =
observed: 16
--
chem-smiles: O=C(N[C@@H](Cn1ccnc1)c1ccc(-c2ccc(F)cc2)cc1Cl)c1ccc(-c2nnc(-c3ccccc3)o2)cc1
property-measured: Time
reported-relation: =
observed: 16
